The entries below come with measured hERG current change (%, negative = inhibition) at 1uM values attached.
subject_of_test: human ether-à-go-go-related gene (hERG) potassium channel (human, UniProt Q12809)
Sequence (Q12809 whole entry, looked up): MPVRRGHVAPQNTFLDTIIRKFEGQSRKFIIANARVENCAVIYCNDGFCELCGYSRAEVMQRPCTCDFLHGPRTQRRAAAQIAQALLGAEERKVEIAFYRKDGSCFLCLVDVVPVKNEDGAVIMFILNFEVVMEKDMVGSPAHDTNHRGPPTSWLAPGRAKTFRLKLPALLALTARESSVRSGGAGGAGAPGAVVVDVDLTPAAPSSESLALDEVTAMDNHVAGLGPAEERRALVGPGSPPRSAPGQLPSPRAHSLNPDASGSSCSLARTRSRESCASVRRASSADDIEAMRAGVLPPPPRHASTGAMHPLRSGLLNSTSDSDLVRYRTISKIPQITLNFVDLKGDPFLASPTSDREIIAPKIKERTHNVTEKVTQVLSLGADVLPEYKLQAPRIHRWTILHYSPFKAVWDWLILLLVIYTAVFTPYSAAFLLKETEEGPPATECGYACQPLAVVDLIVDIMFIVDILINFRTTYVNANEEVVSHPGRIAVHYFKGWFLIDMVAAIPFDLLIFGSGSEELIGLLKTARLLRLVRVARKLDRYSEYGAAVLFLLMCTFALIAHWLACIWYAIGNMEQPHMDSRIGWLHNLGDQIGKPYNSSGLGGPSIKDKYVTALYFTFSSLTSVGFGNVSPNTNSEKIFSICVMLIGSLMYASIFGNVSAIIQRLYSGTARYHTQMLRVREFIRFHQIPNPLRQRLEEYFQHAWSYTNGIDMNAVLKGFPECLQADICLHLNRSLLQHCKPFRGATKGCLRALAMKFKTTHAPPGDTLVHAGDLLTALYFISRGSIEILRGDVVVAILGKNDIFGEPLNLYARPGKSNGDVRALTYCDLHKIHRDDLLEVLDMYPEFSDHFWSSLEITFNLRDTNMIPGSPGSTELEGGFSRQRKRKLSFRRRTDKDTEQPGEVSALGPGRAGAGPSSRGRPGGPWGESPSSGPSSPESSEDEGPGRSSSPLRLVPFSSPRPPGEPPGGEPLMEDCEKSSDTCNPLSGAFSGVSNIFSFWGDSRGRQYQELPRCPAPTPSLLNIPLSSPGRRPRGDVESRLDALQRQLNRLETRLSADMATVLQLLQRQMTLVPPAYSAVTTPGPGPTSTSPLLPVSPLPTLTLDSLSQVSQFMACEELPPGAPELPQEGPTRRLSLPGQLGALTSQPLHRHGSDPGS
experiment_summary: primary screen, population patch clamp on CHO cells stably expressing hERG; higher = less effect of the substance
About 2,200 (0.71%) of roughly 310,000 compounds showed an effect of 50% or more. The effect is printed as a negative number. Many of the other results were omitted from the sample, so strong results are more common in it than they were.
The figure you give is taken to be in %; do not add the unit.

Problem: State its hERG current change (%, negative = inhibition) at 1uM on human ether-à-go-go-related gene (hERG) potassium channel (human, UniProt Q12809): O=C(Nc1ccccc1Cl)c1cc(S(=O)(=O)N2CCCCC2)ccc1N1CCOCC1
Solution: -5.21

Problem: State its hERG current change (%, negative = inhibition) at 1uM on human ether-à-go-go-related gene (hERG) potassium channel (human, UniProt Q12809): COc1ccc(-c2cc3ccccc3n2CC(O)CN2CCOCC2)cc1 (stereo not shown)
Solution: 2.37

Problem: State its hERG current change (%, negative = inhibition) at 1uM on human ether-à-go-go-related gene (hERG) potassium channel (human, UniProt Q12809): O=C(Nc1ccccc1N1CCCCC1)c1cc(S(=O)(=O)N2CCOCC2)ccc1Cl
Solution: 7.72

Problem: State its hERG current change (%, negative = inhibition) at 1uM on human ether-à-go-go-related gene (hERG) potassium channel (human, UniProt Q12809): Cl.N=c1n(CCN2CCCCC2)c2ccccc2n1CC(O)c1ccco1 (stereo not shown)
Solution: -4.15
